tested on: A549 cells; experiment: Cell viability by MTT method in A549 cells; format: cell-based; set-up: concentration or dose not given beside the values; conditions: 72 hours treatment
Lab note: anything with Cell Viability (% inhibition) (A549) at or over 50% counts as true; the rest go in false.

Ask: Form field: Cell Viability (% inhibition) (A549) at least 50%? Entry: CCOC(=O)c1ccc(S(=O)(=O)N[C@@H](Cc2c[nH]c3ccccc23)C(=O)Nc2ccc(N3CCOCC3)cc2)cc1
Reply: false

Ask: Could you verify whether the entry CCCCCCCCCCCC(=O)NNC(=O)[C@H](Cc1c[nH]c2ccccc12)NS(=O)(=O)c1ccc(Br)cc1 shows Cell Viability (% inhibition) (A549) of no less than 50%?
Reply: true

Ask: Is the recorded value of Cell Viability (% inhibition) (A549) equal to or greater than 50% for this compound? COc1cc(N2CCN(C(=O)OC(C)(C)C)CC2)ccc1NC(=O)[C@H](Cc1c[nH]c2ccccc12)NS(=O)(=O)c1ccc(C)cc1
Reply: true

Ask: Quick check: does Cc1cc(C)n(C(=O)[C@H](Cc2c[nH]c3ccccc23)NS(=O)(=O)c2ccc(Br)cc2)n1 have Cell Viability (% inhibition) (A549) greater than or equal to 50%?
Reply: false

Ask: Does the compound CC(C)(C)OC(=O)N[C@@H](Cc1c[nH]c2ccccc12)C(=O)Nc1ccc(N2CCOCC2)cc1 have recorded Cell Viability (% inhibition) (A549) that is 50% or more?
Reply: false

Ask: Would you say O=C(NCCCc1ccccc1)[C@H](Cc1c[nH]c2ccccc12)NS(=O)(=O)c1ccc(Br)cc1 shows Cell Viability (% inhibition) (A549) at minimum 50%?
Reply: true

* * *

Answer each item with its documented inhibition at 10 µM.
molecular target: AIMP2-DX2 (Homo sapiens, UniProt Q13155); assay: DX2-nanoluciferase assay (DX2 expression change) in transfected A549 cells; settings: A549, 4 h, read-out: DX-Nanoluciferase activity (10 μM), 10 μM, 4 hours treatment, A549 cells transfected with nanoluciferase-DX2
Record the value in %, omitting the unit from your answer.

Ask: What measured inhibition at 10 µM goes with CCOC(=O)C(Cc1c[nH]c2ccccc12)NC(=O)[C@H](Cc1c[nH]c2ccccc12)NS(=O)(=O)c1ccc(C)cc1 (stereo partly shown) ?
Reply: 42.7

Ask: Please give the measured inhibition at 10 µM for this compound: COc1ccc(-c2csc(NC(=O)[C@H](Cc3c[nH]c4ccc(F)cc34)NS(=O)(=O)c3ccc(Br)cc3)n2)cc1
Reply: 46.9

Ask: Need inhibition at 10 µM of O=C(Nc1nc(-c2ccc([N+](=O)[O-])cc2)cs1)[C@H](Cc1c[nH]c2ccccc12)NS(=O)(=O)c1ccc(Br)cc1 , thanks.
Reply: 29.6

Ask: Form field: reported inhibition at 10 µM of O=C(NCCc1ccccc1)[C@H](Cc1c[nH]c2ccccc12)NS(=O)(=O)c1ccc(Br)cc1
Reply: 28.2

Ask: Reported inhibition at 10 µM for CC(=O)N1CCN(c2ccc(NC(=O)[C@H](Cc3c[nH]c4ccccc34)NS(=O)(=O)c3ccc(C)cc3)cc2)CC1 : what is it?
Reply: 20.6

Ask: Requested read-out: inhibition at 10 µM. Entry: Cc1ccc(S(=O)(=O)N[C@@H](Cc2c[nH]c3ccccc23)C(=O)Nc2ccc(N3CCN(C(=O)OC(C)(C)C)CC3)cc2)cc1
Reply: 38

Ask: Endpoint output: inhibition at 10 µM of COc1cc(N2CCOCC2)ccc1NC(=O)[C@H](Cc1c[nH]c2ccccc12)NS(=O)(=O)c1ccc(C)cc1 . Value?
Reply: 22.4

* * *

biological target: AIMP2-DX2 (Homo sapiens, UniProt Q13155); assay: DX2-nanoluciferase assay (DX2 expression change) in transfected A549 cells; conditions: A549, 4 h, read-out: DX-Nanoluciferase activity (40 μM), 40 μM, 4 hours treatment, A549 cells transfected with nanoluciferase-DX2; inhibitory effect on AIMP2-DX2 expression
Please go through the items and note down their inhibition at 40 µM.
Field: value (include unit after the number)

Ask: Record request: inhibition at 40 µM value, item Cc1ccc(S(=O)(=O)N[C@@H](Cc2c[nH]c3ccccc23)C(=O)Nc2nc3ccccc3s2)cc1
Reply: -15.8%

Ask: Entry under review: Cc1ccc(-c2csc(NC(=O)[C@H](CC(C)C)N(C)S(=O)(=O)c3ccccc3)n2)cc1 . Reported inhibition at 40 µM?
Reply: 15.1%

Ask: Please look up its inhibition at 40 µM: Cc1ccc(S(=O)(=O)N[C@@H](CC(C)C)C(=O)Nc2ccc(N3CCN(C(=O)OC(C)(C)C)CC3)nc2)cc1
Reply: 9.8%

Ask: Value lookup for inhibition at 40 µM; key = O=C(Nc1nc(-c2ccccc2Cl)cs1)[C@H](Cc1c[nH]c2ccccc12)NS(=O)(=O)c1ccc(Br)cc1
Reply: 37%

Ask: Entry under review: Cc1ccc(S(=O)(=O)N[C@@H](Cc2c[nH]c3ccccc23)C(=O)NC(C)C)cc1 . Reported inhibition at 40 µM?
Reply: 4.04%

Ask: Which inhibition at 40 µM reading was recorded for the compound CC(C)C[C@H](NS(=O)(=O)c1cccc2ccccc12)C(=O)Nc1ccc(N2CCOCC2)cc1 ?
Reply: 25.5%

Ask: # inhibition at 40 µM lookup, item CC(C)C[C@H](NC(=O)c1ccc(C(C)(C)C)cc1)C(=O)N1CCOCC1
Reply: 63.8%

Ask: Quick one: inhibition at 40 µM for O=C(Nc1ccc(N2CCOCC2)cc1)[C@H](Cc1c[nH]c2ccccc12)NS(=O)(=O)c1ccc(F)cc1 ?
Reply: 44.5%

Ask: I am curious: what inhibition at 40 µM value has been reported for CC(C)C[C@H](NC(=O)CCS(=O)(=O)c1ccccc1)C(=O)N1CCOCC1 ?
Reply: 63.1%

Ask: Given the compound O=C(Nc1ccc(N2CCOCC2)cc1)[C@H](Cc1c[nH]c2ccccc12)NS(=O)(=O)c1ccc(Br)cc1 , what is its reported inhibition at 40 µM?
Reply: 30.6%

Ask: // returns reported inhibition at 40 µM for input CC(C)C[C@H](NS(=O)(=O)c1cccs1)C(=O)Nc1ccc(N2CCOCC2)cc1
Reply: 23.7%

Ask: Quick check: inhibition at 40 µM of Cc1ccc(S(=O)(=O)N[C@@H](CC(C)C)C(=O)Nc2nc(-c3ccc(C(F)(F)F)cc3)cs2)cc1 ?
Reply: 65.4%

Ask: Consider the compound Cc1ccc(S(=O)(=O)N[C@@H](Cc2c[nH]c3ccccc23)C(=O)OCc2ccccc2)cc1 and give its measured inhibition at 40 µM.
Reply: 49.9%

Ask: GET /values?readout=inhibition at 40 µM&item= Cc1ccc(S(=O)(=O)N[C@@H](CC(C)C)C(=O)Oc2ccc(-c3csc(N)n3)cc2)cc1
Reply: 22.5%

Ask: Given the compound Cc1ccc(S(=O)(=O)N[C@@H](CC(C)C)C(=O)Nc2nc(-c3ccc(F)cc3)cs2)cc1 , what is its reported inhibition at 40 µM?
Reply: 11.5%

* * *

target: AIMP2-DX2 (Homo sapiens, UniProt Q13155); assay: DX2-nanoluciferase assay (DX2 expression change) in transfected A549 cells; conditions: 40 μM, 4 hours treatment, A549 cells transfected with nanoluciferase-DX2; inhibitory effect on AIMP2-DX2 expression
MEASUREMENT KIND: DX-Nanoluciferase activity (40 μM)
Answer field: number only, no words.

Ask: Quick check: DX-Nanoluciferase activity (40 μM) of Cc1ccc(C(=O)N[C@@H](Cc2c[nH]c3ccccc23)C(=O)Nc2ccc(N3CCOCC3)cc2)cc1 ?
Reply: 53.02

Ask: What does the data say about its DX-Nanoluciferase activity (40 μM)? Entry: Cc1ccc(S(=O)(=O)N[C@@H](Cc2c[nH]c3ccccc23)C(=O)Nc2nc(C)cs2)cc1
Reply: 25.61

Ask: Name the recorded DX-Nanoluciferase activity (40 μM) for CC(C)c1ccc(S(=O)(=O)N[C@@H](Cc2c[nH]c3ccccc23)C(=O)Nc2ccc(N3CCOCC3)cc2)cc1 .
Reply: 77.74

Ask: Recorded DX-Nanoluciferase activity (40 μM) of CC(C)C[C@H](NC(=O)CCS(=O)(=O)c1ccccc1)C(=O)OCc1ccccc1 [Compound 28] , please.
Reply: 57.4

* * *

Molecular target: AIMP2-DX2 (Homo sapiens, UniProt Q13155)
Sequence (Q13155 1-251 isoform Q13155-2): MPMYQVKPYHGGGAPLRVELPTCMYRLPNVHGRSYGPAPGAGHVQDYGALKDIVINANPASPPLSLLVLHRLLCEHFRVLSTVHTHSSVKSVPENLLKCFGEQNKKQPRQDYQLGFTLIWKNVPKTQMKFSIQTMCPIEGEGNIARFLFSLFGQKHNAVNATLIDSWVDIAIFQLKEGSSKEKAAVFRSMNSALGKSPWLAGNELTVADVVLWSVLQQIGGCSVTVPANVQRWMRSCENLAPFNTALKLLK
Test: DX2-nanoluciferase assay (DX2 expression change) in transfected A549 cells
Settings: A549, 4 h, read-out: DX-Nanoluciferase activity (40 μM), 40 μM, 4 hours treatment, A549 cells transfected with nanoluciferase-DX2; inhibitory effect on AIMP2-DX2 expression
MEASUREMENT KIND: inhibition at 40 µM (%)
Kindly provide the numeric value in % only, without the unit symbol.

Ask: inhibition at 40 µM of Cc1ccc(S(=O)(=O)N[C@@H](CS)C(=O)N2CCOCC2)cc1 [Compound 41] on AIMP2-DX2 (Homo sapiens, UniProt Q13155)?
Reply: 52.5

Ask: # query: inhibition at 40 µM | item Cc1ccc(S(=O)(=O)N[C@@H](Cc2c[nH]c3ccc(O)cc23)C(=O)Nc2ccc(N3CCOCC3)cc2)cc1 [Compound 69] | system: AIMP2-DX2 (Homo sapiens, UniProt Q13155)
Reply: 48.4

Ask: What value of inhibition at 40 µM on AIMP2-DX2 (Homo sapiens, UniProt Q13155) does CC(C)C[C@H](NC(=O)Nc1ccccc1)C(=O)OCc1ccccc1 [Compound 154] have?
Reply: 40.5

Ask: Requested read-out inhibition at 40 µM, target or system AIMP2-DX2 (Homo sapiens, UniProt Q13155), entry Cc1ccc(S(=O)(=O)N[C@@H](CC(C)C)C(=O)N2CCS(=O)(=O)CC2)cc1 [Compound 5]
Reply: 47.4

Ask: Tell me reported inhibition at 40 µM for Cc1ccc(S(=O)(=O)N[C@@H](Cc2ccc(OS(=O)(=O)c3ccc(C)cc3)cc2)C(=O)Nc2ccc(N3CCOCC3)cc2)cc1 [Compound 101] , tested with AIMP2-DX2 (Homo sapiens, UniProt Q13155).
Reply: 10.9

Ask: // lookup inhibition at 40 µM | system=AIMP2-DX2 (Homo sapiens, UniProt Q13155) | key= Cc1ccc(S(=O)(=O)N[C@@H](CC(=O)O)C(=O)Nc2ccc(N3CCOCC3)cc2)cc1 [Compound 145]
Reply: -11.1

Ask: Give recorded inhibition at 40 µM with AIMP2-DX2 (Homo sapiens, UniProt Q13155) for the following compound: CC(C)C[C@H](NC(=O)c1ccc2c(c1)OCO2)C(=O)OCc1ccccc1 [Compound 52]
Reply: -5.6

Ask: Identify the measured inhibition at 40 µM of O=C(Nc1ccc(N2CCOCC2)cc1)[C@H](Cc1c[nH]c2ccccc12)NS(=O)(=O)c1ccc([N+](=O)[O-])cc1 [Compound 78] for AIMP2-DX2 (Homo sapiens, UniProt Q13155).
Reply: 44.5

Ask: Hello, I am looking for reported inhibition at 40 µM with AIMP2-DX2 (Homo sapiens, UniProt Q13155) for Cc1ccc(S(=O)(=O)NCC(=O)N2CCOCC2)cc1 [Compound 155] . Could you help?
Reply: 31.3

Ask: Record lookup: for AIMP2-DX2 (Homo sapiens, UniProt Q13155), what inhibition at 40 µM belongs to COc1ccc(-c2nnc(NC(=O)[C@H](CC(C)C)NS(=O)(=O)c3ccc(C)cc3)s2)cc1 [Compound 87] ?
Reply: 50.2

Ask: Provide the documented inhibition at 40 µM with AIMP2-DX2 (Homo sapiens, UniProt Q13155) as the system for Cc1ccc(S(=O)(=O)N[C@@H](Cc2c[nH]c3ccccc23)C(=O)Nc2ccc(N3CCOCC3)c(F)c2)cc1 [Compound 77]
Reply: 23.9

Ask: Observed inhibition at 40 µM on AIMP2-DX2 (Homo sapiens, UniProt Q13155) for Cc1ccc(S(=O)(=O)N[C@@H](CC(C)C)C(=O)Nc2nc(-c3ccc(O)cc3)cs2)cc1 [Compound 96] , please.
Reply: 36.8

Ask: Form entry - test system: AIMP2-DX2 (Homo sapiens, UniProt Q13155); read-out: inhibition at 40 µM; compound: Cc1ccc(C(=O)N[C@@H](Cc2c[nH]c3ccccc23)C(=O)OCc2ccccc2)cc1 [Compound 128]
Reply: 36.8

Ask: Recorded inhibition at 40 µM for Cc1ccc(S(=O)(=O)N[C@@H](Cc2c[nH]c3ccccc23)C(=O)NCc2cccs2)cc1 [Compound 150] with AIMP2-DX2 (Homo sapiens, UniProt Q13155), please?
Reply: -17.7

Ask: // map Cc1ccc(S(=O)(=O)N[C@@H](CC(C)C)C(=O)Nc2ccc(N3CCOCC3)c(F)c2)cc1 [Compound 14] to recorded inhibition at 40 µM (system: AIMP2-DX2 (Homo sapiens, UniProt Q13155))
Reply: 55.6

Ask: Notebook entry, AIMP2-DX2 (Homo sapiens, UniProt Q13155) assay: inhibition at 40 µM of CC(C)NC(=O)[C@H](Cc1c[nH]c2ccccc12)NS(=O)(=O)c1ccc(Br)cc1 [Compound 181] = ?
Reply: 44.1
